Record form. Attribute: melting point. Fill in for each entry.

I would be grateful if you could share the reported melting point for CCC1(O)CC(=O)OCc2c1cc[nH]c2=O (stereo not drawn) .
118 to 119 °C

I would be grateful if you could share the reported melting point for CN(CCN1CCN(c2ccc(C(F)(F)F)cc2)CC1)C[C@@]1(C)Cn2cc([N+](=O)[O-])nc2O1 .
148 to 150 °C

I would be grateful if you could share the reported melting point for C/C(=C\c1ccc(C(=O)O)cc1)c1ccc2c(c1)C(C)(C)C=CC2(C)C .
234 to 236 °C

I would be grateful if you could share the reported melting point for Nc1ncnc2c1c(-c1ccc(Oc3ccccc3)cc1)cn2[C@H]1CC[C@@H](N2CCCC2)CC1 .
101 to 104 °C

I would be grateful if you could share the reported melting point for O=NSC1(C2OCCCO2)CCCCC1 .
34 to 36 °C

I would be grateful if you could share the reported melting point for O=c1oc(-c2snnc2C2CC2)nc2ccccc12 .
164 to 165 °C

I would be grateful if you could share the reported melting point for OCc1ccc(OCCF)cc1 .
37.3 to 38 °C

I would be grateful if you could share the reported melting point for CSc1ccc(C(=S)N2CCCC2)cc1 .
116 to 118 °C

I would be grateful if you could share the reported melting point for CC1(c2ccc(N)cc2)C(=O)Nc2cc(Cl)ccc2C1=O (stereo not drawn) .
155 to 156 °C

I would be grateful if you could share the reported melting point for COC1=C(OC)C(=O)OC1=O .
41 to 43 °C

I would be grateful if you could share the reported melting point for Fc1ccc(-c2nnc(Cl)cc2Cl)cc1 .
124 to 127 °C

I would be grateful if you could share the reported melting point for CCN(CC)S(=O)(=O)c1cc(-c2csc(=Nc3ccccc3C)n2C)ccc1Cl .
166 °C

I would be grateful if you could share the reported melting point for Cc1ccc(OCCCCCOc2ccc3ccc(=O)oc3c2)cn1 .
101 to 102 °C

I would be grateful if you could share the reported melting point for Cc1cc(-c2ccc(Cl)c(Cl)c2)nc(-c2cccc(-c3cccc(S(N)(=O)=O)c3)c2)n1 .
206 °C

I would be grateful if you could share the reported melting point for Cn1c(=NN)sc2ccccc21 .
134 °C

I would be grateful if you could share the reported melting point for O=C1C2C=CC(O2)C(=O)N1c1ccccc1 .
150 to 152 °C

I would be grateful if you could share the reported melting point for O=C1SCCN1Cc1ccccc1[N+](=O)[O-] .
92 to 93 °C

I would be grateful if you could share the reported melting point for CCCCC(NS(=O)(=O)c1ccc(Cl)cc1)C(=S)Nc1ccc(CCC(=O)OC)cc1 (racemic) .
87 to 89 °C

I would be grateful if you could share the reported melting point for Cc1cc(CO)cc(Oc2nc(Cl)nc(Cl)c2C(C)C)c1 .
140 to 141 °C

I would be grateful if you could share the reported melting point for COC(=O)[C@@H]1CCCC[C@H]1C[C@@H](O)[C@H](Cc1ccccc1)NC(=O)OC(C)(C)C .
127 to 128 °C

I would be grateful if you could share the reported melting point for O=c1c2ccccc2nc(CCl)n1-c1ccccc1 .
152 to 153 °C

I would be grateful if you could share the reported melting point for OC(c1ccc(Br)cc1)(c1ccc(Br)cc1)c1ncc[nH]1 .
192 to 194 °C

I would be grateful if you could share the reported melting point for O=C1NC(=O)c2c1c(-c1ccccc1Cl)cc1oc3cc(OCCCN4CCCC4)c(O)cc3c21 .
302 to 304 °C

I would be grateful if you could share the reported melting point for O=C(O)C1(NS(=O)(=O)c2ccc3oc4cc(Br)ccc4c3c2)CCCC1 .
177 to 178 °C

I would be grateful if you could share the reported melting point for O=P(O)(O)C(O)c1ccccc1 (stereo not drawn) .
160 to 162 °C

I would be grateful if you could share the reported melting point for O=C(c1ccc(C2CCCCC2)cc1)N1Cc2cccn2Cc2ccccc21 .
127 to 129 °C

I would be grateful if you could share the reported melting point for CC(=O)Nc1ccn(C2CCC(COC(C)=O)O2)c(=O)n1 (stereo not drawn) .
210 to 211 °C

I would be grateful if you could share the reported melting point for CCOC1CC(O)C(=O)N1S(=O)(=O)c1ccccc1 (stereo not drawn) .
108 to 116 °C

I would be grateful if you could share the reported melting point for CCOC1(c2ccccc2)CCN(C)CC1O (stereo not drawn) .
145 to 146 °C

I would be grateful if you could share the reported melting point for CCOc1nn(-c2ccc(C(F)(F)F)cn2)cc1CCOc1ccc(CCC(=O)O)c(OC)c1 .
147 to 148 °C

I would be grateful if you could share the reported melting point for Cc1ccc2c(NC(=NC#N)NC(NC(=O)Cc3ccc(Cl)cc3)C(C)(C)C)cccc2n1 (stereo not drawn) .
198 to 199 °C

I would be grateful if you could share the reported melting point for COc1ccc(C(=O)Nc2ccccc2)cc1NCc1cccc2ccccc12 .
172 to 174 °C

I would be grateful if you could share the reported melting point for COc1cccc(NC(=O)NCc2cccc3c2CN(C2CCC(=O)NC2=O)C3=O)c1 (stereo not drawn) .
340 to 342 °C

I would be grateful if you could share the reported melting point for CCCc1nc2c(N)nc3cc(OCc4ccccc4OC)ccc3c2n1CC(C)C .
205 to 206 °C

I would be grateful if you could share the reported melting point for C=CCc1cc(C(N)=NO)ccc1O .
144 °C

I would be grateful if you could share the reported melting point for COc1ccc(C(=O)c2ccccn2)c(Cl)c1Cl .
104 to 107 °C

I would be grateful if you could share the reported melting point for CC(=O)C(=Cc1cc(O)c(O)c(Cl)c1)C(C)=O .
167 to 171 °C

I would be grateful if you could share the reported melting point for CON(Cc1ccc(F)c(F)c1)C(=O)C1=C(O)C(=O)N(C)C1 .
146 to 147 °C

I would be grateful if you could share the reported melting point for CNS(=O)(=O)c1ccccc1Nc1nc(Nc2ccc3c(c2)CCCC(=O)N3CC(=O)N2CCN(C)CC2)ncc1Cl .
148 to 151 °C

I would be grateful if you could share the reported melting point for COC(=O)c1ccc2c(c1C(=O)OC)C(=O)OC2=O .
178 to 180 °C

I would be grateful if you could share the reported melting point for CCCCCC(CC(=O)Nc1cc(CCC(=O)O)ccc1C(C)(C)C)c1c(OC)cccc1OC (stereo not drawn) .
52 to 53 °C

I would be grateful if you could share the reported melting point for COc1ccnc(N2CCN(C(=O)c3ccsc3)CC2)n1 .
90 to 92 °C

I would be grateful if you could share the reported melting point for O=C(C(=O)c1ccc(F)cc1)c1ccncc1 .
84 to 86 °C

Reference for the values: a melting point compilation (Tetko et al.; mined from patent text by program, amines drawn as free bases though some values may be those of a salt)
